Target: Kinase A and Spo0F (Bacillus subtilis, UniProt P16497)
Construct: made in house; host or cells: E. coli (recombinant, overexpressing)
Sequence (P16497 whole entry): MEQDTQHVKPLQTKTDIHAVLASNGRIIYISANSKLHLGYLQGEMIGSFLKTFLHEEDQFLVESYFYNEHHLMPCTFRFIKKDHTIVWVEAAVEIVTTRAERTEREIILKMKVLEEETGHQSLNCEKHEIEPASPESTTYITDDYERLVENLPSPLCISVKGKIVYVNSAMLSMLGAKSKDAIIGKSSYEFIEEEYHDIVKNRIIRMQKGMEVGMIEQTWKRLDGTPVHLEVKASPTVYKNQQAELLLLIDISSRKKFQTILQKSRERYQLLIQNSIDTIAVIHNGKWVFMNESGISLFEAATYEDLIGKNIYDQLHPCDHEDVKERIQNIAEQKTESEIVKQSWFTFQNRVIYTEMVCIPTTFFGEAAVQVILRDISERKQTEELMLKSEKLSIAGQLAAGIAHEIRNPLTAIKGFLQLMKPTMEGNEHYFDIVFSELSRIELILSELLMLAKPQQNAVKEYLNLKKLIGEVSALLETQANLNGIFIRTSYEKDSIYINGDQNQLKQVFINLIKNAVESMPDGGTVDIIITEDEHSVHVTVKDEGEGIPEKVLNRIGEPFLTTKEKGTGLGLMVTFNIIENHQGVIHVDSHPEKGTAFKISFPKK
Experiment: Autophosphorylation of Kinase A and transphosphorylation of Spo0F assay (HPK in vitro assay)
Format: biochemical
Conditions: inhibitor concentrations from 1 to 500 μM, [32P]ATP, phosphoimager
// reported log10 of IC50 per item
// units: µM (pre-log); metric: IC50; scale: log10

Would you please look over these solved cases?
C1=C(c2ccc(OCCC(c3ccccc3)(c3ccccc3)c3ccccc3)cc2)CCNC1 : 2.23
c1ccc(C(CCOc2ccc(CCC3=NCCCO3)cc2)(c2ccccc2)c2ccccc2)cc1 : 1.63
O=C(O)CCc1ccc(SCCC(c2ccccc2)(c2ccccc2)c2ccccc2)cc1 : 1.53

Query string: What reported log10 of IC50 corresponds to O=C(O)CCCc1ccc(OCCC(c2ccccc2)(c2ccccc2)c2ccccc2)cc1 on Kinase A and Spo0F (Bacillus subtilis, UniProt P16497)?
Result string: 1.15

Query string: Hi! What's the reported log10 of IC50 for N=C(N)NCCc1ccc(OCCCCC(c2ccccc2)(c2ccccc2)c2ccccc2)cc1 on Kinase A and Spo0F (Bacillus subtilis, UniProt P16497)?
Result string: 1.18

Query string: Provide value of log10 of IC50 for this record tested with Kinase A and Spo0F (Bacillus subtilis, UniProt P16497): NCCCc1ccc(SCCC(c2ccccc2)(c2ccccc2)c2ccccc2)cc1
Result string: 1.11

Query string: Recall the recorded log10 of IC50 for NCc1ccc(OCCC(c2ccccc2)(c2ccccc2)c2ccccc2)cc1 with Kinase A and Spo0F (Bacillus subtilis, UniProt P16497) and state it.
Result string: 1.28

Query string: Give recorded log10 of IC50 with Kinase A and Spo0F (Bacillus subtilis, UniProt P16497) for the following molecule: N=C(N)NCCc1ccc(OCCC(c2ccc(Cl)cc2)(c2ccc(Cl)cc2)c2ccc(Cl)cc2)cc1
Result string: 1.32

Each recorded value in this set is attributed to patent US5874436A.
